# Tested System: rat CB2 (Rattus norvegicus)
# Sequence (Q9QZN9 whole entry): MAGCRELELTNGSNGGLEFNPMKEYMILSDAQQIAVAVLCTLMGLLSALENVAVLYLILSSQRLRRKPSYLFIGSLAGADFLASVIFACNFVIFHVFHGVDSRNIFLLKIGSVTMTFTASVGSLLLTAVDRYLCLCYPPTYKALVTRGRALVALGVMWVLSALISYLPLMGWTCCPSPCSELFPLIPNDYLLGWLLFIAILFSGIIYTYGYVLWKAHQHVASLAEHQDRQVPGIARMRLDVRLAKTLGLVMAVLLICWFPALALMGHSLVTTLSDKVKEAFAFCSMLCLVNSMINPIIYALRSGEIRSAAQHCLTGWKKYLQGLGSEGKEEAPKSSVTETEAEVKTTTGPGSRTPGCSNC
# Protocol Details: rat CB2 cyclase functional assay (HitHunter cAMP)
# Assay type: cell-based
# Parameters: expressed in transfected cells; host or cells: HEK
# Experimental Parameters: rat CB2 cyclase (EC50, nM), HEK cells, forskolin 18 μM
Readout Label: log10 of EC50 (log10 of the value in nM)
Hi team, quick reminder: these entries are log10 of EC50 (nM).

Example entries and their recorded answers appear below.
>>> df
                                   compound  observed_value
0  Cn1c(C(C)(C)C)c/c(=N\C(=O)c2cc(C(F)(F)F)ccc2OC[C@@H]2CCN2S(C)(=O)=O)n1CC1CC1            0.40
1  Cn1c(C(C)(C)C)c/c(=N\C(=O)c2cc(C(F)(F)F)ccc2OCCCS(C)(=O)=O)n1C[C@H]1CCCO1           -0.59
2  CC1CCC(COc2ccc(C(F)(F)F)cc2C(=O)N=c2cc(C(C)(C)C)n(C)n2CC2CCCO2)O1 (single isomer, unassigned) [Example 36]            0.43

Dear colleague, could you send me log10 of EC50 for each of the items below? Thanks.
1. Cn1c(C(C)(C)C)c/c(=N\C(=O)c2cc(C(F)(F)F)ccc2OC[C@@H]2CCCO2)n1Cc1ccc(F)cc1
2. Cn1c(C(C)(C)C)c/c(=N\C(=O)c2cc(C(F)(F)F)cc(Cl)c2OC[C@@H]2CCCO2)n1C[C@H]1CCCO1
3. CCCCn1nc(C(C)(C)C)s/c1=N\C(=O)c1cc(C(F)(F)F)ccc1OC[C@@H]1CCCN1C

Found:
1. 0.40
2. -0.04
3. 0.57

Lookup: For the compound Cn1c(C(C)(C)C)c/c(=N\C(=O)c2cc(C(F)(F)F)ccc2NC[C@H]2CCCO2)n1C[C@H]1CCCO1 , report log10 of EC50.
Found: -0.43

###

Provide the reported EC50 of each item.
# Tested System: UniProtKB Q9QZN9
# Protocol Details: rat CB2 cyclase functional assay (HitHunter cAMP)
# Format: cell-based
# Parameters: expressed in transfected cells; host or cells: HEK
# Experimental Parameters: rat CB2 cyclase (EC50, nM), HEK cells, forskolin 18 μM
Give bare numbers, in nM.

>>> df
                               smiles_input  readout_label  observed_value
0  Cn1c(C(C)(C)C)c/c(=N\C(=O)c2cc(C(F)(F)F)ccc2OC[C@@H]2CCCO2)n1CC1CC1           EC50             0.2
1  CN1CCC[C@H]1COc1ccc(C(F)(F)F)cc1C(=O)/N=C1\SC(C)(C)CN1C[C@H]1CCCO1           EC50            0.09
2  CSCCCOc1ccc(C(F)(F)F)cc1C(=O)/N=c1\cc(C(C)(C)C)n(C)n1C[C@H]1CCCO1           EC50             0.7
3  Cn1c(C(C)(C)C)c/c(=N\C(=O)c2cc(C(F)(F)F)ccc2OCc2cnccn2)n1C[C@H]1CCCO1           EC50             3.3
4  Cn1c(C(C)(C)C)c/c(=N\C(=O)c2cc(C(F)(F)F)ccc2OC[C@@H]2CCCO2)n1C[C@H]1CCCO1           EC50            0.59
5  Cn1c(C2(C)CC2)c/c(=N\C(=O)c2cc(C(F)(F)F)ccc2OCCC(C)(C)O)n1C[C@H]1CCCO1           EC50             0.2

Pending compound:
Lookup: For the compound Cn1c(C(C)(C)C)c/c(=N\C(=O)c2cc(C(F)(F)F)ccc2OC[C@@H]2CCCCN2)n1C[C@H]1CCCO1 , report EC50.
Found: 0.45
